Could you please report measured pKd for the items listed next?
molecular target: T1, Insulin-like Growth Factor receptor (UniProt P08069 31-1367, limits assumed); test: competitive displacement of labelled ligand, receptor captured on anti-FLAG IgG plate, two-site sequential model
T1 construct: Captured on antibody-coated microtiter plates; the construct is not described; also called IGFR; IGF Type I receptor
Where no end group is shown, it is not given here.
pKd (log units): -log10 of the concentration in mol/L.

Provide measured pKd value, entry: single chain insulin (SCI) that is wild type at position B10 (His^A8, Asp^B28, Pro^B29) (ligand, also called A8-His, B28-Asp, B29-Pro SCI; SCI not containing the Asp^B10 substitution) FVNQHLCGSHLVEALYLVCGERGFFYTDPTGGGPRRGIVEQCCHSICSLYQLENYCN
7.56

Provide measured pKd value, entry: 57 mer single-chain insulin analogue (His^A8, Asp^B10, Asp^B28, Pro^B29; GGGPRR linker) (ligand, ends and bridges not checked; cysteine pairing not given here, also called 57mer single-chain analogue; 57-mer single-chain Analog) FVNQHLCGSDLVEALYLVCGERGFFYTDPTGGGPRRGIVEQCCHSICSLYQLENYCN
8.00
